Entry source: patent US20230012273A1

Each item that follows carries a reported pKd.
Target: T1, cynomolgus SIRPα extracellular domain + His-tag (XP_015313155) (cynomolgus monkey)
T1 construct: also called CySIRPα XP_015313155; cynoSIRPα
T1 chain: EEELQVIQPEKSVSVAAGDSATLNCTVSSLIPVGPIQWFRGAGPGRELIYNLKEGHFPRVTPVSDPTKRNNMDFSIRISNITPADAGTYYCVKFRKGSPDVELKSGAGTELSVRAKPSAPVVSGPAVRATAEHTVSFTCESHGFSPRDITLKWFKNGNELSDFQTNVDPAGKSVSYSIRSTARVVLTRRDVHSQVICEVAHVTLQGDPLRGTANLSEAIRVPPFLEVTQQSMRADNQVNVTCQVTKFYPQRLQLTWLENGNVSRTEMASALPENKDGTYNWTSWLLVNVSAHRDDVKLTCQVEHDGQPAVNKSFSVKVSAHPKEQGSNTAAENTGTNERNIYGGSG
Test: SPR, Ab captured, ECD-His analyte
pKd: −log10 of the molar value.
PARAMETER: pKd

[
  {
    "BINDER": "Antibody A4 (antibody, human IgG1, kappa, L234A L235A, V domains shown) VH: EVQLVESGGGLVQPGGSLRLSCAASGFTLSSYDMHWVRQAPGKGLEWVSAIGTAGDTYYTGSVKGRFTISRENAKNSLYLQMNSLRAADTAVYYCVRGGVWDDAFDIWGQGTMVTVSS VL: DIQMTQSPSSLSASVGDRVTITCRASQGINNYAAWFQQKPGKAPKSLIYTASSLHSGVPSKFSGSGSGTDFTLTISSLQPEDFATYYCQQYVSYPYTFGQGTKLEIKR",
    "PARAMETER": "pKd",
    "NUMERIC_VALUE": 6.43
  },
  {
    "BINDER": "Antibody A7 (antibody, human IgG1, kappa, L234A L235A, V domains shown) VH: EVQLVESGGGLVQPGGSLRLSCAASGFTLSSYDMHWVRQATGKGLEWVSAIGTAGDTYYTGSVKGRFTISRENAKNSLYLQMNSLRAGDTAVYYCVRGGVWDDAFDIWGQGTMVTVSS VL: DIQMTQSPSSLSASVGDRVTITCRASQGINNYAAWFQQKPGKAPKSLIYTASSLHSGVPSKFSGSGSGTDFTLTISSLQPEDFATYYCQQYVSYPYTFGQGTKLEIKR",
    "PARAMETER": "pKd",
    "NUMERIC_VALUE": 6.41
  },
  {
    "BINDER": "Antibody A2 (antibody, human IgG1, kappa, L234A L235A, V domains shown) VH: EVQLVESGGGLVQPGGSLRLSCAASGFTLSSYDMHWVRQATGKGLEWVSAIGTAGDTYYTGSVKGRFTISRENAKNSLYLQMNSLRAADTAVYYCVRGGVWDDAFDIWGQGTMVTVSS VL: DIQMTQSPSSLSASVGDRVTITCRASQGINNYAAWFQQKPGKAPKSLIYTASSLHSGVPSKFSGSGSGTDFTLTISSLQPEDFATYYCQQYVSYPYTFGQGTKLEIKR",
    "PARAMETER": "pKd",
    "NUMERIC_VALUE": 6.37
  },
  {
    "BINDER": "Antibody A3 (antibody, human IgG1, kappa, L234A L235A, V domains shown) VH: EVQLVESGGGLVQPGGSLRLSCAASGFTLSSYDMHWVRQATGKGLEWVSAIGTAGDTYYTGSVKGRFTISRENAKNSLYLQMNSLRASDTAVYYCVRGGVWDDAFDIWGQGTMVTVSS VL: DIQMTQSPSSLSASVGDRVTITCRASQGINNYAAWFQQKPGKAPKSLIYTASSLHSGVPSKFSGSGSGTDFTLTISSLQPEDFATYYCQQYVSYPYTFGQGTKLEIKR",
    "PARAMETER": "pKd",
    "NUMERIC_VALUE": 6.36
  }
]
